# TARGET_UNDER_TEST: Tubulin (Homo sapiens) (UniProt P68371+Q9H4B7+P0DPH7+P68366+Q13509+Q71U36+P04350+Q3ZCM7+P07437+P68363+Q9BQE3+Q6PEY2+Q13885+Q9BVA1+Q9BUF5)
# PROCEDURE_DETAILS: Inhibition of [3H]colchicine binding to tubulin (unknown origin) at 50 uM relative to control
# Assay type: protein-complex assay
Activity calls are given as the source filed them. No cut-off for these calls is given here.
ENDPOINT: inhibition

Reference set, count: 7
COc1cc(/C=C\c2ccc(B(O)O)cc2)cc(OC)c1OC ... 77%
COc1cc(/C=C\c2cccc(B(O)O)c2)cc(OC)c1OC ... inactive
COc1ccc(C(=O)c2cc(OC)c(OC)c(OC)c2)cc1O ... inactive
COc1ccc(/C=C\c2cc(OC)c(OC)c(OC)c2)cc1B(O)O ... 99%
COc1cc(/C=C\c2cnc(OC)c(B(O)O)c2)cc(OC)c1OC ... inactive
COc1cc(/C=C\c2ccccc2B(O)O)cc(OC)c1OC ... inactive
COc1ccc(C(=O)c2cc(OC)c(OC)c(OC)c2)cc1B(O)O ... 59%

In the following, a different compound is considered.
Exercise: Kindly indicate its recorded inhibition. Item: COc1cc(C(=O)c2cnc(OC)c(B(O)O)c2)cc(OC)c1OC
Solution: inactive
